The measured values listed here are drawn from patent US20100260765A1.

- test_target: T1, soluble KDR Ig4-7 domain (human, UniProt P35968 328-764)
- T1 construct: domain: Ig4-7 domain; also called b-KDRIg4-7-myc-his; Ig4-7 domain of KDR; not shown: myc-his tag of the pSecTag construct
- T1 sequence (P35968 328-764): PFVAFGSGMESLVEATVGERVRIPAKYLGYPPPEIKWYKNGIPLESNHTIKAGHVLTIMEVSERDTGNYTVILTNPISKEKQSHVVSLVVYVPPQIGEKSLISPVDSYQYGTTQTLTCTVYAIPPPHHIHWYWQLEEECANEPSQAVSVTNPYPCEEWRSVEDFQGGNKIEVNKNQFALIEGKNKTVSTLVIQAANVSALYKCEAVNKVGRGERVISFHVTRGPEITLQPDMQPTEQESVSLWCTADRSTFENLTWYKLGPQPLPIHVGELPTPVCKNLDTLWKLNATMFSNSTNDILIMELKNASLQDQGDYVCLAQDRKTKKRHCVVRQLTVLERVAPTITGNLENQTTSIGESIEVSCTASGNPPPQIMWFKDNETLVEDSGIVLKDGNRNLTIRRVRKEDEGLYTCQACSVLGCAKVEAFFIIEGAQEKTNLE
- assay_comment: ELISA, KDR Ig4-7 coat (1:1 diln.), antibody 0.01 ug/mL
endpoint_label: ELISA reading

binder="22B8 (antibody, V domains shown, Fully human monoclonal antibody from a XenoMouse hybridoma (IgG2 or IgG4 strain), purified) VH: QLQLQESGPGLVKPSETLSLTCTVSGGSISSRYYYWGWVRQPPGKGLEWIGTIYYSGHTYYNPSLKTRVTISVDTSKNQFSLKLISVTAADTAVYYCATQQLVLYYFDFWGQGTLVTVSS VL: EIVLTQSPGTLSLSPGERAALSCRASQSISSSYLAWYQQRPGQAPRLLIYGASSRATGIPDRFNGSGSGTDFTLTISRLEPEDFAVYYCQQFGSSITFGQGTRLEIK" endpoint_value=0.074
